Each entry below carries its reported protein stability index.
Experiment: protein stability index of a GFP-peptide fusion (yeast GPS) (PSI 1-4); higher = more stable; sorted into four equal gates, so the index is relative within each strain
Conditions: pdr5∆
Metric name: protein stability index

[[record]]
seq = "YSIFLENENILIKAKNF [SMC1]"
metric_name = "protein stability index"
recorded_measurement = 1.22

[[record]]
seq = "QAELLQLAVKIINKVLD [YJL039C/NUP192]"
metric_name = "protein stability index"
recorded_measurement = 3.09

[[record]]
seq = "SSNLYETIIEADKSLPS [YJR042W/NUP85]"
metric_name = "protein stability index"
recorded_measurement = 2.97

[[record]]
seq = "ETHPDNSNKQAVAILAD [BRR2]"
metric_name = "protein stability index"
recorded_measurement = 2.93

[[record]]
seq = "NNVYFAAGALFVSSGFD [RPN14]"
metric_name = "protein stability index"
recorded_measurement = 2.81

[[record]]
seq = "ANSQIQAYEEIISSNEN [YIL149C/MLP2]"
metric_name = "protein stability index"
recorded_measurement = 3.46

[[record]]
seq = "PDENKTRVRLPSGAKKV [RPL2A]"
metric_name = "protein stability index"
recorded_measurement = 2.96

[[record]]
seq = "NLEPLIAKLVAVLNVSP [NUT1]"
metric_name = "protein stability index"
recorded_measurement = 1.38

[[record]]
seq = "MAYFDENLNRNWRGREH [BRN1]"
metric_name = "protein stability index"
recorded_measurement = 3.41

[[record]]
seq = "STLQHFQETLDSTVVYP [MED8]"
metric_name = "protein stability index"
recorded_measurement = 3.11

[[record]]
seq = "KPETPKGPIIISKNPSN [SIR2]"
metric_name = "protein stability index"
recorded_measurement = 3

[[record]]
seq = "FNSVKSFDEWFNTPFAN [SNF2]"
metric_name = "protein stability index"
recorded_measurement = 3.14

[[record]]
seq = "GENVFLKRISDGLSFGK [SIR3]"
metric_name = "protein stability index"
recorded_measurement = 3.39

[[record]]
seq = "SALQQIMYQQMLKYRRL [SNF2]"
metric_name = "protein stability index"
recorded_measurement = 1.43

[[record]]
seq = "DGYQLFHAEPSGTFYRY [PUP2]"
metric_name = "protein stability index"
recorded_measurement = 1.6

[[record]]
seq = "LLNVSVNITKFSKFERS [SKI6]"
metric_name = "protein stability index"
recorded_measurement = 2.49

[[record]]
seq = "MPSRFTKTRKHRGHVSA [RPL28]"
metric_name = "protein stability index"
recorded_measurement = 2.19

[[record]]
seq = "QHHVTDADKLSFNCENF [YML031W/NDC1]"
metric_name = "protein stability index"
recorded_measurement = 2.28

[[record]]
seq = "QDENIGLSMLAKLKELA [RPC31]"
metric_name = "protein stability index"
recorded_measurement = 3.46

[[record]]
seq = "IRYNAKRRNWRRTKMNI [RPL39]"
metric_name = "protein stability index"
recorded_measurement = 3.23

[[record]]
seq = "SDRREHDEKLSDELHNQ [LIN1]"
metric_name = "protein stability index"
recorded_measurement = 2.56

[[record]]
seq = "QNNTTKFHSELQYLDKH [RPN12]"
metric_name = "protein stability index"
recorded_measurement = 3

[[record]]
seq = "AEHSQNKIDQSLQYIER [YJL041W/NSP1]"
metric_name = "protein stability index"
recorded_measurement = 3.16

[[record]]
seq = "ETYVASYVVPRLYLKDQ [ECM29]"
metric_name = "protein stability index"
recorded_measurement = 1.93

[[record]]
seq = "ISFRSNLLKNFISSNDA [SNF6]"
metric_name = "protein stability index"
recorded_measurement = 1.75

[[record]]
seq = "EKDAKINKLMEKDFQVN [SIR4]"
metric_name = "protein stability index"
recorded_measurement = 3.44


###

Experiment: protein stability index of a GFP-peptide fusion (yeast GPS) (PSI 1-4); higher = more stable; sorted into four equal gates, so the index is relative within each strain
Conditions: san1∆
Metric name: protein stability index

[[record]]
seq = "IVPDLIINPHAIPSRMT [RPB2]"
recorded_measurement = 1.75

[[record]]
seq = "QEELKKRQELEEASQQQ [MED2]"
recorded_measurement = 2.47

[[record]]
seq = "IEGMEQRIIKELSIRFP [ARP7]"
recorded_measurement = 2.84

[[record]]
seq = "QLPSKFTCSCNSLTVDG [RPN14]"
recorded_measurement = 2.17

[[record]]
seq = "NIRNNIESQNLDLIPHS [SRB4]"
recorded_measurement = 2.62

[[record]]
seq = "HGGSRYATKDGVAHLLN [QCR2]"
recorded_measurement = 3.3

[[record]]
seq = "ISPESVFGTLGELIKVN [SMC3]"
recorded_measurement = 1.84

[[record]]
seq = "TQVFNILLQHKEKLTVQ [POP1]"
recorded_measurement = 3.13


###

Assay: protein stability index of a GFP-peptide fusion (yeast GPS) (PSI 1-4); higher = more stable; sorted into four equal gates, so the index is relative within each strain
Settings: ubr1∆
Decision: protein stability index compared against 3; not below it gives t, below it gives f.

[[record]]
seq = "KKFGGKGARSRFQKSYR [RPS16A]"
class_assignment = "t"

[[record]]
seq = "LLKSTGLHPFEVAQLGS [RPB4]"
class_assignment = "f"

[[record]]
seq = "MTAQQAPKWYPSEDVAA [RPL6B]"
class_assignment = "f"

[[record]]
seq = "SPMGNAYSMGAQNQGGQ [PGD1]"
class_assignment = "f"

[[record]]
seq = "ERRMQVTAEDFKQAKER [RPT2]"
class_assignment = "t"

[[record]]
seq = "AQDEVFSLAFSPNRYWL [ASC1]"
class_assignment = "f"

[[record]]
seq = "KKAFTSYDRTLLIADSR [RPS16A]"
class_assignment = "f"

[[record]]
seq = "KTMKTFVIHIQEKNFQT [RPB5]"
class_assignment = "f"

[[record]]
seq = "PDIVGHEFTLSFTYELK [BRR2]"
class_assignment = "f"

[[record]]
seq = "TKLRAFVYNKVNETEAI [YGR119C/NUP57]"
class_assignment = "f"


###

Assay: protein stability index of a GFP-peptide fusion (yeast GPS) (PSI 1-4); higher = more stable; sorted into four equal gates, so the index is relative within each strain
Details: pdr5∆
Decision: protein stability index compared against 3; not below it gives 1, below it gives 0.

[[record]]
seq = "LNIKPLLDAGCKVVAEM [SKP1]"
class_assignment = 0

[[record]]
seq = "DDTKNQDSMSKGTGEES [YGR119C/NUP57]"
class_assignment = 1

[[record]]
seq = "GLHSSEYKLRSLTLSFI [ECM29]"
class_assignment = 0

[[record]]
seq = "NNFIVERVQSDENKDDE [SRP68]"
class_assignment = 1

[[record]]
seq = "AFAGSKNDEVLGLLLPI [RPN1]"
class_assignment = 1

[[record]]
seq = "VIGGNSLFHIVVDTEET [SMC3]"
class_assignment = 0

[[record]]
seq = "KIESSVESQFSAGRLYA [RPS8A]"
class_assignment = 0

[[record]]
seq = "GTVGNSHKTTKEDTVSW [RPL11A]"
class_assignment = 1

[[record]]
seq = "KKFGGKGARSRFQKSYR [RPS16A]"
class_assignment = 1

[[record]]
seq = "LCYMAPMTVKLVQLPKS [POP3]"
class_assignment = 0

[[record]]
seq = "SRDLDISSSTQCLRFLK [POP6]"
class_assignment = 0

[[record]]
seq = "RHTTGTGRMRYLKHVSR [RPL37A]"
class_assignment = 1

[[record]]
seq = "LKHYNGYDINYISKIGE [SWI1]"
class_assignment = 0

[[record]]
seq = "EAMMLKEEGLQQFNLHE [MED1]"
class_assignment = 1

[[record]]
seq = "ASSKAVTRGISVLKDSD [PRE1]"
class_assignment = 0

[[record]]
seq = "HFIQKLHTARKILVLTG [SIR2]"
class_assignment = 0

[[record]]
seq = "PKFISEALAFTSLVANE [YDL116W/NUP84]"
class_assignment = 0

[[record]]
seq = "THIPQTNLKNHPAYLFK [YLR018C/POM34]"
class_assignment = 0

[[record]]
seq = "KVIEEQLKHTKLALAEN [SMC4]"
class_assignment = 0

[[record]]
seq = "RSMVRKWQTLIEANVTV [RPS1A]"
class_assignment = 0

[[record]]
seq = "ASHNEKDQDSQIELSCN [SRP72]"
class_assignment = 0

[[record]]
seq = "VNVLLQSYFSQLKFEGF [BRR2]"
class_assignment = 0

[[record]]
seq = "QYIRTLVSEARTLWPEF [SSN8]"
class_assignment = 0

[[record]]
seq = "PYFPGGSIAMARVLFDD [CYT1]"
class_assignment = 0

[[record]]
seq = "HWNLPGERIFNKIRNLE [SIR2]"
class_assignment = 1

[[record]]
seq = "RGVTKVGFGESNFTSII [SMC1]"
class_assignment = 1

[[record]]
seq = "QKVFVRSRNGGATKIVR [DIS3]"
class_assignment = 0

[[record]]
seq = "RPLQKIMLLQLELGSCF [SIN4]"
class_assignment = 0

[[record]]
seq = "NENDKIYLLFQSSGKLK [YDL116W/NUP84]"
class_assignment = 0

[[record]]
seq = "DAAAEKRNGDEVYTLVD [ARP7]"
class_assignment = 1

